Answer each item with its documented pIC50.
Measured Target: UniProt:P01116
Assay Overview: Inhibition of wild-type GDP-bound biotinylated-KRAS (unknown origin) assessed as suppression of SOS1-mediated nucleotide exchange by measuring reduction in KRAS-RAF RBD complex formation preincubated for 60 mins followed by SOS1 addition and further incubated for 60 mins and subsequent addition of KRAS-RAF RBD mixture measured after 30 to 60 mins by FRET assay
One number for each entry, as −log10 of the molar value.

Below, each entry is followed by its recorded pIC50 result.
According to the records, this compound `CN1CCC[C@H]1COc1nc(N2C[C@H]3CC[C@@H](C2)N3)c2cc(Cl)c(-c3ccc(F)c4sc(N)c(C#N)c34)c(F)c2n1` displays pIC50 of 7.77

Memo: `N#Cc1c(N)sc2c(F)ccc(-c3c(Cl)cc4c(N5C[C@H]6CC[C@@H](C5)N6)nc(OCC5(CN6CC[C@@H](F)C6)CC5)nc4c3F)c12` , reported pIC50: 8.04

Measured pIC50 of `Cc1cc(N)nc(-c2c(Cl)cc3c(N4C[C@H]5CC[C@@H](C4)N5)nc(OCC45CCCN4CCC5)nc3c2F)c1C(F)(F)F` : 6.67

GET /value?item= `N#Cc1c(N)sc2c(F)ccc(-c3c(Cl)cc4c(N5C[C@H]6CC[C@@H](C5)N6)nc(OC[C@@]56CCCN5C[C@H](F)C6)nc4c3F)c12` &field=pIC50 returns 8.38

Continuing:
What the record says about `Cc1cc(N)nc(-c2c(Cl)cc3c(N4C[C@H]5CC[C@@H](C4)N5)nc(OC[C@@]45CCCN4C[C@H](F)C5)nc3c2F)c1C(F)(F)F` : pIC50 is 6.82

----------
Measured Target: GTPase KRas (Homo sapiens, UniProt P01116, G12D)
Assay Overview: Inhibition of GDP-bound biotinylated-KRAS G12D mutant (1 to 169 residues) (unknown origin) assessed as suppression of SOS1-mediated nucleotide exchange by measuring reduction in KRAS G12D mutant-RAF RBD complex formation preincubated for 60 mins followed by SOS1 addition and further incubated for 60 mins and subsequent addition of KRAS G12D mutant-RAF RBD mixture measured after 30 to 60 mins by FRET assay
Assay Readout: pIC50
Numbers only, as −log10 of the molar value.

Guide cases for pIC50, answers given:
Briefly, pIC50 measured for `Cc1cc(N)nc(-c2c(Cl)cc3c(N4C[C@H]5CC[C@@H](C4)N5)nc(OCC45CCCN4CCC5)nc3c2F)c1C(F)(F)F` : 8.68

Documented pIC50 of `Cc1cc(N)nc(-c2c(Cl)cc3c(N4CCNC[C@@H]4C)nc(OC[C@@H]4CCCN4C)nc3c2F)c1C(F)(F)F` : 7.11

The reported value for `Nc1cc2cccc(F)c2c(-c2c(Cl)cc3c(N4C[C@H]5CC[C@@H](C4)N5)nc(OC[C@@]45CCCN4C[C@H](F)C5)nc3c2F)n1` in terms of pIC50 is 8.22

# input for lookup
The recorded pIC50 for `N#Cc1c(N)sc2c(F)ccc(-c3c(Cl)cc4c(N5C[C@H]6CC[C@@H](C5)N6)nc(OCC5(CN6CC[C@@H](F)C6)CC5)nc4c3F)c12` is 9.00

----------
Measured Target: GTPase KRas (Homo sapiens)
Assay Overview: Thermal stabilization of wild-type GDP-bound KRAS (1 to 169 residues) (unknown origin) assessed as melting temperature incubated for 1 hrs by differential scanning fluorimetry assay
Threshold check on ΔTm: strictly below 8 °C is true; on or above 8 °C is false.

Query: Is the reported ΔTm for `N#Cc1c(N)sc2c(F)ccc(-c3c(Cl)cc4c(N5C[C@H]6CC[C@@H](C5)N6)ncnc4c3F)c12` strictly below 8 °C?
Response: true

Query: Could you please tell me whether ΔTm recorded for `N#Cc1c(N)sc2c(F)ccc(-c3c(C(F)(F)F)cc4c(N5C[C@H]6CC[C@@H](C5)N6)nc(OC[C@@]56CCCN5C[C@H](F)C6)nc4c3F)c12` is less than 8 °C?
Response: false

Query: Item `N#Cc1c(N)sc2c(F)ccc(-c3cc4nc(OC[C@@]56CCCN5C[C@H](F)C6)nc(N5C[C@H]6CC[C@@H](C5)N6)c4cc3Cl)c12` : ΔTm beneath 8 °C, strictly?
Response: false

Query: Please state whether ΔTm is below 8 °C for `Cc1cc(N)nc(-c2c(Cl)cc3c(N4C[C@H]5CC[C@@H](C4)N5)nc(OC[C@@]45CCCN4C[C@H](F)C5)nc3c2F)c1C(F)(F)F`
Response: true

Query: Does the reported ΔTm of the following compound sit strictly below 8 °C? `N#Cc1c(N)sc2c(F)ccc(-c3c(Cl)cc4c(N5C[C@H]6CC[C@@H](C5)N6)nc(OCC5(CN6CC[C@@H](F)C6)CC5)nc4c3F)c12`
Response: false

Query: API: query returns whether the compound falls strictly under 8 °C in ΔTm. Query: `Cc1cc(N)nc(-c2c(Cl)cc3c(N4C[C@H]5CC[C@@H](C4)N5)nc(OCC45CCCN4CCC5)nc3c2F)c1C(F)(F)F`
Response: true

Moving on to another compound below.
Query: Strictly below 8 °C in ΔTm? `Nc1cc2cccc(F)c2c(-c2c(Cl)cc3c(N4C[C@H]5CC[C@@H](C4)N5)nc(OC[C@@]45CCCN4C[C@H](F)C5)nc3c2F)n1`
Response: true

----------
Provide the reported pIC50 of each item.
Measured Target: GTPase KRas (Homo sapiens)
Assay Overview: Inhibition of wild-type GDP-bound biotinylated-KRAS (unknown origin) assessed as suppression of SOS1-mediated nucleotide exchange by measuring reduction in KRAS-RAF RBD complex formation preincubated for 60 mins followed by SOS1 addition and further incubated for 60 mins and subsequent addition of KRAS-RAF RBD mixture measured after 30 to 60 mins by FRET assay
Numbers only, as −log10 of the molar value.

The reported pIC50 value, GTPase KRas (Homo sapiens), for `N#Cc1c(N)sc2c(F)ccc(-c3c(C(F)(F)F)cc4c(N5C[C@H]6CC[C@@H](C5)N6)nc(OC[C@@]56CCCN5C[C@H](F)C6)nc4c3F)c12` reads 8.41

Turning now to a further record.
So the reported pIC50 for `Nc1nc2c(-c3c(Cl)cc4c(N5C[C@H]6CC[C@@H](C5)N6)nc(OC[C@@]56CCCN5C[C@H](F)C6)nc4c3F)ccc(F)c2s1` , on GTPase KRas (Homo sapiens), turned out to be 7.40

----------
Assay Overview: Antiproliferative activity against human SNU-1033 cells assessed as reduction in cell viability measured after 5 days by Cell-Titer Glo assay
Type: functional, cell-based
Condition Notes: SNU-1033, 120 h
I'd appreciate it if you could supply pIC50 values for the items below.
One number for each entry, as −log10 of the molar value.

Fill in pIC50 for each of the 3 compounds listed.
1. N#Cc1c(N)sc2c(F)ccc(-c3c(C(F)(F)F)cc4c(N5C[C@H]6CC[C@@H](C5)N6)nc(OC[C@@]56CCCN5C[C@H](F)C6)nc4c3F)c12
2. N#Cc1c(N)sc2c(F)ccc(-c3c(Cl)cc4c(N5C[C@H]6CC[C@@H](C5)N6)nc(OC[C@@]56CCCN5C[C@H](F)C6)nc4c3F)c12
3. C#Cc1c(F)ccc2cc(O)cc(-c3ncc4c(N5C[C@H]6CC[C@@H](C5)N6)nc(OC[C@@]56CCCN5C[C@H](F)C6)nc4c3F)c12

Response:
6.21
5.72
5.30

----------
Measured Target: GTPase KRas (Homo sapiens, UniProt P01116)
Assay Overview: Inhibition of wild-type GDP-bound biotinylated-KRAS (unknown origin) assessed as suppression of SOS1-mediated nucleotide exchange by measuring reduction in KRAS-RAF RBD complex formation preincubated for 60 mins followed by SOS1 addition and further incubated for 60 mins and subsequent addition of KRAS-RAF RBD mixture measured after 30 to 60 mins by FRET assay
I'd appreciate it if you could supply IC50 values for the items below.

# example entries with known answers
Noted for `N#Cc1c(N)sc2c(F)ccc(-c3cc4nc(OC[C@@]56CCCN5C[C@H](F)C6)nc(N5C[C@H]6CC[C@@H](C5)N6)c4cc3Cl)c12` : its IC50 reads 11.6 nM

Recorded result, `Cc1cc(N)nc(-c2c(Cl)cc3c(N4CCNC[C@@H]4C)nc(OC[C@@H]4CCCN4C)nc3c2F)c1C(F)(F)F` , IC50: > 1000 nM

***
Record `Nc1cc2cccc(F)c2c(-c2c(Cl)cc3c(N4C[C@H]5CC[C@@H](C4)N5)nc(OC[C@@]45CCCN4C[C@H](F)C5)nc3c2F)n1` , field IC50: > 1000 nM

----------
Measured Target: GTPase KRas (Homo sapiens, UniProt P01116, G12D)
Assay Overview: Inhibition of GDP-bound biotinylated-KRAS G12D mutant (1 to 169 residues) (unknown origin) assessed as suppression of SOS1-mediated nucleotide exchange by measuring reduction in KRAS G12D mutant-RAF RBD complex formation preincubated for 60 mins followed by SOS1 addition and further incubated for 60 mins and subsequent addition of KRAS G12D mutant-RAF RBD mixture measured after 30 to 60 mins by FRET assay
Assay Readout: pIC50
One number for each entry, as −log10 of the molar value.

Solved cases (3 shown):
The recorded pIC50 for `CN1CCC[C@H]1COc1nc(N2C[C@H]3CC[C@@H](C2)N3)c2cc(Cl)c(-c3ccc(F)c4sc(N)c(C#N)c34)c(F)c2n1` is 8.89

pIC50 for `N#Cc1c(N)sc2c(F)ccc(-c3cc4nc(OC[C@@]56CCCN5C[C@H](F)C6)nc(N5C[C@H]6CC[C@@H](C5)N6)c4cc3Cl)c12` is 8.82

Item: `N#Cc1c(N)sc2c(F)ccc(-c3c(Cl)cc4c(N5C[C@H]6CC[C@@H](C5)N6)ncnc4c3F)c12` | pIC50: 8.27

Turning now to a further record.
get_value(item= `N#Cc1c(N)sc2c(F)ccc(-c3c(C(F)(F)F)cc4c(N5C[C@H]6CC[C@@H](C5)N6)nc(OC[C@@]56CCCN5C[C@H](F)C6)nc4c3F)c12` , readout=pIC50) returns 9.07

From: ChEMBL document CHEMBL5370635
